species on record: Felis catus; test: Tested for inhibition of cardioaccelerator nerves of cat; assay type: functional; details: read-out: ID50 (the source's name)
hey, just use Yes if measured ED50 is less than 0.3 µmol/kg, otherwise No

See these solved cases before continuing.
COMPOUND | CLASS NAME
Br.CCCN1CCC[C@@H]2c3cc(O)c(O)cc3CC[C@H]21 | Yes
Br.CCCN1CCCC2c3cc(O)c(O)cc3CCC21 (configuration not stated) | Yes
CN1CCc2cccc3c2[C@H]1Cc1ccc(O)c(O)c1-3 [APOMORPHINE] | Yes

In plain terms, does Br.CCN1CCCC2c3cc(O)c(O)cc3CCC21 (configuration not stated) come in under 0.3 µmol/kg for ED50?
No

Let us now turn to Br.CCN1CCC[C@@H]2c3cc(O)c(O)cc3CC[C@H]21
Yes

Let us now turn to Br.CN1CCC[C@@H]2c3cc(O)c(O)cc3CC[C@H]21
Yes

Let us now turn to Br.CN1CCCC2c3cc(O)c(O)cc3CCC21 (cis isomer)
No

====

species: Canis familiaris; assay: Tested for mean blood pressure in dog after ID50 dose; assay type: functional, Canis lupus familiaris
OBSERVATION TYPE: Activity (mmHg)
Please give a number only; it is taken to be in mmHg.

Use the examples below as a reference point.
COMPOUND | Activity / mmHg
Br.CN1CCCC2c3cc(O)c(O)cc3CCC21 (cis isomer) | 95.4
Br.CCCN1CCCC2c3cc(O)c(O)cc3CCC21 (configuration not stated) | 82.9
Br.CCN1CCC[C@@H]2c3cc(O)c(O)cc3CC[C@H]21 | 90.9
Br.CCCN1CCC[C@@H]2c3cc(O)c(O)cc3CC[C@H]21 | 73.6
Br.CN1CCC[C@@H]2c3cc(O)c(O)cc3CC[C@H]21 | 95.6

Which Activity is reported for this compound? CN1CCc2cccc3c2[C@H]1Cc1ccc(O)c(O)c1-3
92

Let us now turn to Br.CCN1CCCC2c3cc(O)c(O)cc3CCC21 (configuration not stated)
89.8
